Let's look at some molecules and their measured pKi.
- SYSTEM NAME: RXRβ
- ASSAY OVERVIEW: ligand binding assay, RXRβ
- CONDITION INFO: read-out: RXR Bind Ki β
- Excerpt: Other assays described below, measure the ability of the compounds of the present invention to bind to, and/or activate various retinoid receptor subtypes. When in these assays a compound binds to a given receptor subtype and activates the transcription of a reporter gene through that subtype, then the compound is considered an agonist of that receptor subtype. […]
// pKi here means minus log10 of the molar concentration (mol/L)

{"MOLECULE": "CCN(c1ccc(C(=O)O)cc1)c1cc(C(C)C)c2c(c1)C(C)(C)CO2 [Compound 31]", "SYSTEM NAME": "RXRβ", "ENDPOINT": "pKi", "MEASURED NUMBER": 6.12}
{"MOLECULE": "CCN(c1ccc(C(=O)O)cc1)c1cc(C(C)(C)C)c2c(c1)C(C)(C)CO2 [Compound 32]", "SYSTEM NAME": "RXRβ", "ENDPOINT": "pKi", "MEASURED NUMBER": 6.47}

In: Please give the measured pKi for this molecule: CC(C)c1cc(N(C)c2ccc(C(=O)O)cc2)cc2c1OCC2(C)C [Compound 30]
Out: 5.34

====

- SYSTEM NAME: RXRβ
- ASSAY OVERVIEW: ligand binding assay, RXRβ
- CONDITION INFO: read-out: RXR Bind Ki β
ENDPOINT: Ki (µM)
Report as a plain number; the unit µM is understood.

{"MOLECULE": "CC(C)N(c1ccc(C(=O)O)cc1)c1cc(C(C)(C)C)c2c(c1)C(C)(C)CO2 [Compound 44]", "UNIT SPEC": "µM", "Ki": 0.215}

Now look at this one.
In: Please give the measured Ki for this molecule: CCCN(c1ccc(C(=O)O)cc1)c1ccc2c(c1)C(C)(C)OC2(C)C [Compound 84]
Out: 2

====

- SYSTEM NAME: RXRγ (Mus musculus, UniProt P28705)
- Construct: expressed in transfected cells
- Sequence (P28705 whole entry): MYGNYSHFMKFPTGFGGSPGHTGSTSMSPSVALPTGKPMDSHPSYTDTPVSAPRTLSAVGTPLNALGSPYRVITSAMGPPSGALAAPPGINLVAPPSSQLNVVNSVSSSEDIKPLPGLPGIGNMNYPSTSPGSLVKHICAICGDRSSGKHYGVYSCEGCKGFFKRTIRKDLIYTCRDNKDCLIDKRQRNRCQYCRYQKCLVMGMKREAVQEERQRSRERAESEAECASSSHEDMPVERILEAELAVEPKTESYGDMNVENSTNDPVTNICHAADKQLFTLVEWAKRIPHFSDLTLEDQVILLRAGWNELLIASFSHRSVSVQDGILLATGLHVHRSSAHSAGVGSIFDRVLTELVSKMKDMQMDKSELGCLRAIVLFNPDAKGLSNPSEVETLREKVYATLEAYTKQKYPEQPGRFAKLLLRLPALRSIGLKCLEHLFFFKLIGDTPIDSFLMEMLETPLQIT
- ASSAY OVERVIEW: holoreceptor transactivation assay, RXRγ
- Assay type: cell-based
- CONDITION INFO: relative to 10^-6 M cyclopropyl penta-2,4-dienoic acid reference (RXRs); read-out: % efficacy (RXRγ transactivation)
Let's look at some compounds and their measured Emax.
Report as a plain number; the unit % is understood.

Record excerpt, results attached:
{"SMILES REPRESENTATION": "CCN(c1ccc(C(=O)O)cc1)c1cc(C(C)(C)C)c2c(c1)C(C)(C)CO2", "SYSTEM NAME": "RXRγ (Mus musculus, UniProt P28705)", "UNIT SPEC": "%", "MEASURED NUMBER": 122}
{"SMILES REPRESENTATION": "CC(C)c1cc(N(C)c2ccc(C(=O)O)cc2)cc2c1OCC2(C)C", "SYSTEM NAME": "RXRγ (Mus musculus, UniProt P28705)", "UNIT SPEC": "%", "MEASURED NUMBER": 70}
{"SMILES REPRESENTATION": "CCCCN(c1ccc(C(=O)O)cc1)c1ccc2c(c1)C(C)(C)OC2(C)C", "SYSTEM NAME": "RXRγ (Mus musculus, UniProt P28705)", "UNIT SPEC": "%", "MEASURED NUMBER": 197}
{"SMILES REPRESENTATION": "CCc1cc(N(c2ccc(C(=O)O)cc2)C(C)C)cc2c1OCC2(C)C", "SYSTEM NAME": "RXRγ (Mus musculus, UniProt P28705)", "UNIT SPEC": "%", "MEASURED NUMBER": 132}

In: Please give the measured Emax for this compound: CCCN(c1ccc(C(=O)O)cc1)c1ccc2c(c1)C(C)(C)OC2(C)C
Out: 124

In: Please give the measured Emax for this compound: CCN(c1ccc(C(=O)O)cc1)c1cc2c(c(C(C)C)c1C)OCC2(C)C
Out: 120

In: Please give the measured Emax for this compound: CCc1cc(N(C)c2ccc(C(=O)O)cc2)cc2c1OCC2(C)C
Out: 15

In: Please give the measured Emax for this compound: CC(C)N(c1ccc(C(=O)O)cc1)c1ccc2c(c1)C(C)(C)OC2(C)C
Out: 134

In: Please give the measured Emax for this compound: CC(C)c1cc(N(c2ccc(C(=O)O)cc2)C(C)C)cc2c1OCC2(C)C
Out: 108

====

- SYSTEM NAME: RXRγ (Mus musculus, UniProt P28705)
- Construct: expressed in transfected cells
- ASSAY OVERVIEW: holoreceptor transactivation assay, RXRγ
- Type: cell-based
- CONDITION INFO: holoreceptor transactivation, RXRγ; read-out: RXR Trans. EC50 γ
ENDPOINT: pEC50
// pEC50 here means minus log10 of the molar concentration (mol/L)

Record excerpt, results attached:
{"SMILES REPRESENTATION": "CCCN(c1ccc(C(=O)O)cc1)c1ccc2c(c1)C(C)(C)OC2(C)C", "SYSTEM NAME": "RXRγ (Mus musculus, UniProt P28705)", "MEASURED NUMBER": 7.29}
{"SMILES REPRESENTATION": "CCc1cc(N(c2ccc(C(=O)O)cc2)C(C)C)cc2c1OCC2(C)C", "SYSTEM NAME": "RXRγ (Mus musculus, UniProt P28705)", "MEASURED NUMBER": 6.29}
{"SMILES REPRESENTATION": "CC(C)c1cc(N(c2ccc(C(=O)O)cc2)C(C)C)cc2c1OCC2(C)C", "SYSTEM NAME": "RXRγ (Mus musculus, UniProt P28705)", "MEASURED NUMBER": 7.72}
{"SMILES REPRESENTATION": "Cc1c(N(c2ccc(C(=O)O)cc2)C(C)C)cc2c(c1C(C)(C)C)OCC2(C)C", "SYSTEM NAME": "RXRγ (Mus musculus, UniProt P28705)", "MEASURED NUMBER": 7.77}
{"SMILES REPRESENTATION": "CC(C)N(c1ccc(C(=O)O)cc1)c1cc(C(C)(C)C)c2c(c1)C(C)(C)CO2", "SYSTEM NAME": "RXRγ (Mus musculus, UniProt P28705)", "MEASURED NUMBER": 7.70}
{"SMILES REPRESENTATION": "CCc1cc(N(CC)c2ccc(C(=O)O)cc2)cc2c1OCC2(C)C", "SYSTEM NAME": "RXRγ (Mus musculus, UniProt P28705)", "MEASURED NUMBER": 6.16}

In: Please give the measured pEC50 for this compound: CC(C)N(c1ccc(C(=O)O)cc1)c1ccc2c(c1)C(C)(C)OC2(C)C
Out: 6.12

====

- SYSTEM NAME: RXRα (Homo sapiens)
- Construct: expressed in transfected cells
- Sequence (P19793 whole entry): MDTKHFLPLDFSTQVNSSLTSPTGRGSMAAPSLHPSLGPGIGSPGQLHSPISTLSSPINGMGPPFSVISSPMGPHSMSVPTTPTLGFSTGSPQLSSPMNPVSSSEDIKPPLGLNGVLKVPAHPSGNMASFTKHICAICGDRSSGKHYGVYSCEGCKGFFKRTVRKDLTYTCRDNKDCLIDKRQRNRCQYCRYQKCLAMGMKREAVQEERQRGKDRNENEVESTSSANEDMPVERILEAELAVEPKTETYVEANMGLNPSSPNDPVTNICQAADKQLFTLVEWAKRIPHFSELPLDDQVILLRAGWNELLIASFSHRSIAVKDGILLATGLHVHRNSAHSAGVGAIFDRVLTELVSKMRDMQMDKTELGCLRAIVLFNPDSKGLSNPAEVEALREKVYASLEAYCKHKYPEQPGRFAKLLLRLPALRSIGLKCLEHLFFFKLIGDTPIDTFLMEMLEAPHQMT
- ASSAY OVERVIEW: holoreceptor transactivation assay, RXRα
- Format: cell-based
- CONDITION INFO: relative to 10^-6 M cyclopropyl penta-2,4-dienoic acid reference (RXRs); read-out: % efficacy (RXRα transactivation)
Let's look at some molecules and their measured Emax.
Report as a plain number; the unit % is understood.

{"SMILES REPRESENTATION": "CCN(c1ccc(C(=O)O)cc1)c1cc(C(C)C)c2c(c1)C(C)(C)CO2", "SYSTEM NAME": "RXRα (Homo sapiens)", "ENDPOINT": "Emax", "MEASURED NUMBER": 116}
{"SMILES REPRESENTATION": "CCN(c1ccc(C(=O)O)cc1)c1cc(C)c2c(c1)C(C)(C)CO2", "SYSTEM NAME": "RXRα (Homo sapiens)", "ENDPOINT": "Emax", "MEASURED NUMBER": 80}
{"SMILES REPRESENTATION": "CCN(c1ccc(C(=O)O)cc1)c1ccc2c(c1)C(C)(C)OC2(C)C", "SYSTEM NAME": "RXRα (Homo sapiens)", "ENDPOINT": "Emax", "MEASURED NUMBER": 107}
{"SMILES REPRESENTATION": "CCCCN(c1ccc(C(=O)O)cc1)c1ccc2c(c1)C(C)(C)OC2(C)C", "SYSTEM NAME": "RXRα (Homo sapiens)", "ENDPOINT": "Emax", "MEASURED NUMBER": 122}
{"SMILES REPRESENTATION": "CCCN(c1ccc(C(=O)O)cc1)c1ccc2c(c1)C(C)(C)OC2(C)C", "SYSTEM NAME": "RXRα (Homo sapiens)", "ENDPOINT": "Emax", "MEASURED NUMBER": 121}
{"SMILES REPRESENTATION": "Cc1cc(N(c2ccc(C(=O)O)cc2)C(C)C)cc2c1OCC2(C)C", "SYSTEM NAME": "RXRα (Homo sapiens)", "ENDPOINT": "Emax", "MEASURED NUMBER": 75}

In: Please give the measured Emax for this molecule: CC(C)c1cc(N(C)c2ccc(C(=O)O)cc2)cc2c1OCC2(C)C
Out: 75

In: Please give the measured Emax for this molecule: CCc1cc(N(C)c2ccc(C(=O)O)cc2)cc2c1OCC2(C)C
Out: 25

In: Please give the measured Emax for this molecule: CCc1cc(N(c2ccc(C(=O)O)cc2)C(C)C)cc2c1OCC2(C)C
Out: 100
